Biological target: Factor X (FX), P00742
Sequence (P00742 whole entry, looked up): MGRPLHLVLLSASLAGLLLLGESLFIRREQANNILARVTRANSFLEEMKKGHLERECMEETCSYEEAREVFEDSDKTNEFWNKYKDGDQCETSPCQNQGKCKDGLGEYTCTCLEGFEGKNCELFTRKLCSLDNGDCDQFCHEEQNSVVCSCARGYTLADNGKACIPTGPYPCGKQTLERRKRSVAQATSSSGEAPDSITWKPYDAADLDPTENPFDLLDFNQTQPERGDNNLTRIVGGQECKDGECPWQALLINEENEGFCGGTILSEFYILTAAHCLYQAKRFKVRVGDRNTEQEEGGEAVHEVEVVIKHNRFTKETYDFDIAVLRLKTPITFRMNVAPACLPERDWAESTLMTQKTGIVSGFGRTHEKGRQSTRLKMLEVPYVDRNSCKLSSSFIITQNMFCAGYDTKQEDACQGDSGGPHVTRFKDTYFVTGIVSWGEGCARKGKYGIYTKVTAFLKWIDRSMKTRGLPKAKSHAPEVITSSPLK
PARAMETER_MEASURED: KM (nM)
API: value field is a number in nM; no unit string.

[Q] Reported KM, protein FIXa R318Y/R338E/R403E/E410N/T412V (protein) chain 1: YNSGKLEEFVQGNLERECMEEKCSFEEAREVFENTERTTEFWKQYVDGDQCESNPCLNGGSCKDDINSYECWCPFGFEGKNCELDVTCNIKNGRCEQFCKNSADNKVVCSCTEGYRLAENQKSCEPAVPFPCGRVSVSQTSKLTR chain 2: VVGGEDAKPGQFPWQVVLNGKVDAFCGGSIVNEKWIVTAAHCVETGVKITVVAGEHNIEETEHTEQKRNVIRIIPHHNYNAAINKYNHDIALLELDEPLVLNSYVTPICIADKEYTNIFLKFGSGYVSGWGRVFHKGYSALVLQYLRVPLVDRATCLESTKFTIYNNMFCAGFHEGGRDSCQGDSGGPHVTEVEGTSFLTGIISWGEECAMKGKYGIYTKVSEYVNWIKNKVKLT : ____
[A] 44.3
